Target: Anti-CD28 Fab (SEQ ID NOs: 202, 203)
Sequence (VH, as listed by the source, chain 1 of 2): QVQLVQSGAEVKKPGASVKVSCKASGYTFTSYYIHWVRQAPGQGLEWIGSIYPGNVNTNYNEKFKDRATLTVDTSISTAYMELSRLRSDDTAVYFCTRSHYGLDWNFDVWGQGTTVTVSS
Sequence (VL, as listed by the source, chain 2 of 2): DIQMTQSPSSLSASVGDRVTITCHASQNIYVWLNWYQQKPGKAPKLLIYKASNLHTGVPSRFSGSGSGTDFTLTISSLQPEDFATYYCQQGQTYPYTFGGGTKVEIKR
Assay: phage binding ELISA on captured Fab, competitor CD28 antigen;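 note: clonal phage supernatant binding in wells preincubated with CD28 antigen in blocking buffer, detected by HRP-conjugated anti-M13 antibody ELISA, compared with blocking buffer alone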
Reported Anti-CD28 Fab signal in the presence of CD28 values for the following binders.

> print(dat)
                       binder  reported
1  YCAGHAAEYMWKCL [Phage-776]      0.06
2  YCDGHHAEYMWKCL [Phage-791]      0.06
3  YCEGHLPQYLAKCY [Phage-844]      0.08

Input line: I would be grateful if you could share the reported Anti-CD28 Fab signal in the presence of CD28 for YCDGHAWWYMEKCL [Phage-849] .
Output line: 0.06

Input line: Entry YCEGHSSEYLGKCL [Phage-750] has what Anti-CD28 Fab signal in the presence of CD28?
Output line: 0.09

Input line: Can you look up the measured Anti-CD28 Fab signal in the presence of CD28 of YCAGHTTEYIVKCL [Phage-868] for me?
Output line: 0.05

Input line: Entry under review: YCDGHSPQYLWKCL [Phage-822] . Reported Anti-CD28 Fab signal in the presence of CD28?
Output line: 0.05

Input line: Dear colleague, I am looking for the recorded Anti-CD28 Fab signal in the presence of CD28 of the following binder: YCEGHDIRYMMKCL [Phage-785]
Output line: 0.08

Input line: Anti-CD28 Fab signal in the presence of CD28 for YCAGHIPQYLNKCL [Phage-873] ?
Output line: 0.07

Input line: Fill in: Anti-CD28 Fab signal in the presence of CD28 of YCEGHLPSYLAKCL [Phage-753] is ___
Output line: 0.06

Input line: Which Anti-CD28 Fab signal in the presence of CD28 value belongs to YCDGHSAEYLGKCL [Phage-795] ?
Output line: 0.07

Input line: Report Anti-CD28 Fab signal in the presence of CD28 for YCAGHSLQYLGKCY [Phage-813] please.
Output line: 0.06

Input line: Any idea what Anti-CD28 Fab signal in the presence of CD28 was measured for YCAGHAAIYMAKCL [Phage-814] ?
Output line: 0.07

Input line: Anti-CD28 Fab signal in the presence of CD28 for YCDGHAAMYMSKCL [Phage-870] ?
Output line: 0.07

Input line: Sample YCMGHSAEYMGKCL [Phage-848] — what was its Anti-CD28 Fab signal in the presence of CD28?
Output line: 0.06

Input line: Could you tell me which Anti-CD28 Fab signal in the presence of CD28 is on file for YCAGHLDEYMEKCL [Phage-885] ?
Output line: 0.07
